Biological target: T1, anti-CD28 Fab (SEQ ID NOs: 202, 203)
T1 construct: biotinylated and captured on neutravidin coated plates in the phage ELISA
T1 sequence (VH, as listed by the source, chain 1 of 2): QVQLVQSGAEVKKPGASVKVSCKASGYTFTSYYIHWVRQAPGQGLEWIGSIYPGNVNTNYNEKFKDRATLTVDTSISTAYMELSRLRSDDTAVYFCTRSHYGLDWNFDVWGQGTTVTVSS
T1 sequence (VL, as listed by the source, chain 2 of 2): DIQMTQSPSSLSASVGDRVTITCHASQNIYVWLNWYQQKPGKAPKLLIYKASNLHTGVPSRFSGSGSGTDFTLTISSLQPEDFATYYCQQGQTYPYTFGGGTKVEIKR
Experiment: phage ELISA on captured Fab, wells pre-incubated with CD28 antigen (competitor);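 further: clonal phage ELISA with wells pretreated with CD28 plus blocking buffer before phage addition, bound phage detected by HRP-linked anti-M13 antibody, reference wells got blocking buffer only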
Each item that follows carries a reported Anti-CD28 Fab signal in the presence of CD28.
measurementName: Anti-CD28 Fab signal in the presence of CD28

>>> quantitativereadout("YCDGHSWQYISKCL (on phage, pIII fusion) [Phage-455]")
0.05
>>> quantitativereadout("YCAGHAAEYMTKCL (on phage, pIII fusion) [Phage-475]")
0.07
>>> quantitativereadout("YCAGHLPQYIQKCL (on phage, pIII fusion) [Phage-591]")
0.07
>>> quantitativereadout("YCDGHAPEYLTKCL (on phage, pIII fusion; cell for position 6 is missing in the printed row) [Phage-550]")
0.06
>>> quantitativereadout("YCEGHSVEYIGKCL (on phage, pIII fusion) [Phage-521]")
0.07
>>> quantitativereadout("YCDGHSEAFMQKCL (on phage, pIII fusion) [Phage-495]")
0.07
>>> quantitativereadout("YCDGHSEQYMSKCL (on phage, pIII fusion) [Phage-451]")
0.07
>>> quantitativereadout("YCEGHSLMYMAKCL (on phage, pIII fusion) [Phage-563]")
0.06
>>> quantitativereadout("YCDGHLPQYLQKCT (on phage, pIII fusion) [Phage-525]")
0.07
>>> quantitativereadout("YCDGHNFQYMEKCL (on phage, pIII fusion) [Phage-598]")
0.06
>>> quantitativereadout("YCDGHKAEYMQKCL (on phage, pIII fusion) [Phage-565]")
0.06
>>> quantitativereadout("YCDGHSPEYIGKCL (on phage, pIII fusion) [Phage-467]")
0.07
>>> quantitativereadout("YCEGHSEEFMSKCL (on phage, pIII fusion) [Phage-532]")
0.08
>>> quantitativereadout("YCEGHAPQYMNKCL (on phage, pIII fusion) [Phage-456]")
0.08
>>> quantitativereadout("YCDGHSAEYLSKCL (on phage, pIII fusion) [Phage-561]")
0.07
>>> quantitativereadout("YCDGHLPEYLAKCL (on phage, pIII fusion) [Phage-555]")
0.06
>>> quantitativereadout("YCDGHSADYMAKCL (on phage, pIII fusion) [Phage-462]")
0.07
>>> quantitativereadout("YCEGHLEQYMQKCL (on phage, pIII fusion) [Phage-492]")
0.06
>>> quantitativereadout("YCEGHSIQYMTKCL (on phage, pIII fusion) [Phage-551]")
0.13
>>> quantitativereadout("YCDGHHKEYLLKCL (on phage, pIII fusion) [Phage-568]")
0.06
>>> quantitativereadout("YCEGHIAEYMQKCL (on phage, pIII fusion) [Phage-480]")
0.13
>>> quantitativereadout("YCDGHAEEYMAKCL (on phage, pIII fusion) [Phage-588]")
0.06
>>> quantitativereadout("YCDGHDVEYMAKCL (on phage, pIII fusion) [Phage-470]")
0.07
>>> quantitativereadout("YCDGHSREYMNKCL (on phage, pIII fusion) [Phage-469]")
0.06

// provenance: patent US20260274955A1
